The origin of these recorded values is ChEMBL document CHEMBL3046437.

# Test system: Aspergillus niger
# assay_details: Antifungal activity against Aspergillus niger MTCC 282 after 24 to 48 hr by two-fold serial dilution method
# Assay type: functional
Classify: 1.0 when MIC is strictly less than 50 µg/mL; 0.0 when MIC is not.

{"compound": "O=c1oc2ccc(Cl)cc2c2nc3c(cc12)CCc1ccccc1-3", "assigned_label": 0.0}
{"compound": "O=c1oc2ccc(Cl)cc2c2nc3c(cc12)CCC3", "assigned_label": 1.0}
{"compound": "O=c1oc2ccccc2c2nc3c(cc12)CCc1ccccc1-3", "assigned_label": 1.0}

// switching to the query compound
Q) Field: below-cutoff. Rule: recorded MIC strictly less than 50 µg/mL. Subject: C[C@@H]1C[C@@H]([C@H](O)CC2CC(=O)NC(=O)C2)C(=O)[C@@H](C)C1 [CYCLOHEXIMIDE]
A) 1.0
